Data origin, for the record: patent US20240245658A1

# tested system: human 5-HT7 receptor (Homo sapiens, UniProt P34969)
# Sequence (P34969 whole entry): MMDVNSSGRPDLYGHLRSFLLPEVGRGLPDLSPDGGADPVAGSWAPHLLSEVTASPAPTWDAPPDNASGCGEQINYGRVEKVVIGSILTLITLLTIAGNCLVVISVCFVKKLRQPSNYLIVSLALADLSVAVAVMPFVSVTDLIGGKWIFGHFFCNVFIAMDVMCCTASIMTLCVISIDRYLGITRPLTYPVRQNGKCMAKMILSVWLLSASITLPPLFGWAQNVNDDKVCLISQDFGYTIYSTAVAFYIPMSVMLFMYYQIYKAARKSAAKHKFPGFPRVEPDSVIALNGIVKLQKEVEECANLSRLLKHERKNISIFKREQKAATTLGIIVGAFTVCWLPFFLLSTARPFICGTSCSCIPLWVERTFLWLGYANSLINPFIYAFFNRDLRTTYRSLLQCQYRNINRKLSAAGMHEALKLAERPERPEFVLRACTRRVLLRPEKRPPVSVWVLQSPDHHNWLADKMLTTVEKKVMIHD
# experimental details: 5HT7 Antagonism Assay (Euroscreen FAST-0499C), cAMP HTRF
# run conditions: CHO-K1 cells expressing human 5-HT7, reference agonist at EC80, cAMP HTRF
pIC50: −log10 of the molar value.
# pIC50 values compiled below

Some molecules with recorded pIC50:
# molecule, reported endpoint, result
data = [
    ("Cc1ccc2c(c1)CC(CN)c1ncccc1O2 (single isomer, unassigned) [Compound 129]", "pIC50", "> 6.00"),
    ("CNCC1Oc2ccccc2Oc2cccnc21 (single isomer, unassigned) [Compound 57]", "pIC50", "≤ 5.00"),
    ("NCC1Cc2cccc(F)c2Oc2ccccc21 (single isomer, unassigned) [Compound 84]", "pIC50", "≤ 5.00"),
]

Pending molecule:
Notebook entry, human 5-HT7 receptor (Homo sapiens, UniProt P34969) assay: pIC50 of NCC1Cc2ncc(Cl)cc2Oc2ccccc21 (single isomer, unassigned) [Compound 179] = ? ≤ 5.00

====

# pIC50 values compiled below
# tested system: human 5-HT7 receptor (Homo sapiens, UniProt P34969)
# experimental details: 5HT7 Antagonism Assay (Euroscreen FAST-0499C), cAMP HTRF
# run conditions: CHO-K1 cells expressing human 5-HT7, reference agonist at EC80, cAMP HTRF
pIC50: −log10 of the molar value.

Some compounds with recorded pIC50:
# compound, result
measured = [
    ("CNCC1Cc2ccccc2Oc2cccnc21 (single isomer, unassigned) [Compound 6]", "≤ 5.00"),
    ("NCC1Cc2ncccc2Oc2c(F)cccc21 (single isomer, unassigned)", "≤ 5.00"),
]

Pending compound:
Which pIC50 is reported for this compound? CNCC1Cc2ncccc2Oc2ccc(F)cc21 (single isomer, unassigned) [Compound 165] ≤ 5.00

====

# tested system: human 5-HT7 receptor (Homo sapiens, UniProt P34969)
# experimental details: 5HT7 Antagonism Assay (Euroscreen FAST-0499C), cAMP HTRF
# run conditions: CHO-K1 cells expressing human 5-HT7, reference agonist at EC80, cAMP HTRF
# IC50 values compiled below

Some molecules with recorded IC50:
# molecule, result
measured = [
    ("NCC1Cc2c(F)cccc2Oc2cccnc21 (single isomer, unassigned) [Compound 137]", "≥ 10 µM"),
    ("Cc1ccc2c(c1)Oc1cccnc1C(CN)C2 (single isomer, unassigned) [Compound 132]", "≥ 10 µM"),
    ("NCC1Cc2ncccc2Oc2ccccc21 (single isomer, unassigned) [Compound 29]", "≥ 10 µM"),
]

Pending molecule:
Which IC50 is reported for this molecule? CNCC1Cc2ccc(C)cc2Oc2cccnc21 (single isomer, unassigned) [Compound 134] 1 to 10 µM

====

# tested system: human 5-HT7 receptor (Homo sapiens, UniProt P34969)
# experimental details: 5HT7 Antagonism Assay (Euroscreen FAST-0499C), cAMP HTRF
# run conditions: CHO-K1 cells expressing human 5-HT7, reference agonist at EC80, cAMP HTRF
pIC50: −log10 of the molar value.
reported endpoint: pIC50

Some molecules with recorded pIC50:
# molecule, pIC50
measured = [
    ("NCC1Cc2ncc(Cl)cc2Oc2ccccc21 (single isomer, unassigned) [Compound 180]", "≤ 5.00"),
    ("NCC1Cc2cccc(F)c2Oc2ccccc21 (single isomer, unassigned) [Compound 85]", "≤ 5.00"),
    ("NCC1Cc2ccccc2Oc2c(F)cccc21 (single isomer, unassigned) [Compound 100]", "≤ 5.00"),
]

Which pIC50 is reported for this molecule? CNCC1Cc2cccc(F)c2Oc2ccccc21 (single isomer, unassigned) [Compound 87] 5.00 to 6.00

Next: NCC1Cc2ccccc2Oc2cccc(F)c21 (single isomer, unassigned) [Compound 105] ≤ 5.00

Next: NCC1Cc2c(F)cccc2Oc2ccccc21 (single isomer, unassigned) [Compound 81] ≤ 5.00
